System: multi-drug-resistant NCl/ADR carcinoma cell line
ASSAY_PROTOCOL: growth inhibition of multi-drug-resistant NCl/ADR cells, crystal-violet assay
Type: cell-based, human
SETUP_CONDITIONS: Table 2; 13,14-α-epoxides, crystal-violet assay, in comparison to epothilone B
READOUT_NAME: IC50 (nM)

COMPOUND	ASSAYED_SYSTEM	UNITS_LABEL	IC50
C/C(=C\c1csc(C)n1)[C@@H]1C[C@@H]2O[C@]2(C)CCC[C@H](C)[C@H](O)[C@@H](C)C(=O)C(C)(C)[C@@H](O)CC(=O)O1 [Epothilone B, reference compound]	multi-drug-resistant NCl/ADR carcinoma cell line	nM	3.5

(I) Cc1nc(/C=C(\F)[C@@H]2C[C@@H]3O[C@]3(C)CCC[C@H](C)[C@H](O)[C@@H](C)C(=O)C(C)(C)[C@@H](O)CC(=O)O2)cs1 [Example 3B]
(II) Cc1nc(/C=C(\Cl)[C@@H]2C[C@@H]3O[C@]3(C)CCC[C@H](C)[C@H](O)[C@@H](C)C(=O)C(C)(C)[C@@H](O)CC(=O)O2)cs1 [Example 7A]
# query: argmin of IC50 over I and II When you have decided, please share the label of that item.
I
(I: 1.4 nM, II: 6 nM)
